Recorded values, source paper PMC9920986.

- assayed.system: human recombinant NRH:quinone oxidoreductase (NQO2) (Homo sapiens)
- Construct: purchased Sigma Q0380
- Sequence (P16083 whole entry): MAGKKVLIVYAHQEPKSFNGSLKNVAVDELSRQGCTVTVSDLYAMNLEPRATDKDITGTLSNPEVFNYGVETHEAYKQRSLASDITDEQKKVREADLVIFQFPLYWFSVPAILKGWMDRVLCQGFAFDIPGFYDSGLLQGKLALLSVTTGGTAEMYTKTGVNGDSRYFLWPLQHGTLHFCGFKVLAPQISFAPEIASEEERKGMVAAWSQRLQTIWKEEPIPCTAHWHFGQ
- assay.protocol: biochemical
parameter: IC50

| compound | IC50 |
| --- | --- |
| Cc1ccc(C(=O)CC2(O)C(=O)Nc3ccc(NC(=O)c4ccco4)cc32)cc1 (centres unmarked) | > 50 µM |
| CN(C)c1ccc(C=C2C(=O)Nc3ccccc32)cc1 | > 50 µM |

In the following, a different compound is considered.
Request: Which measured IC50 value corresponds to O=C1Nc2ccc([N+](=O)[O-])cc2C1=Cc1ccccn1 ?
Response: > 50 µM

====

- assay.protocol: Antiproliferative assay (MTT colorimetric test, 72 h)
- Format: cell-based
- condition: human, n.a. = not active, read-out: A549, CC50
A collection of compounds and their measured log10(CC50 at 72 h)
# log10 transformed; quantity=CC50 at 72 h; unit=µM

For orientation, consider the following solved cases.
| compound | recorded.number |
| --- | --- |
| COc1ccc(C=C2C(=O)Nc3ccc(NC(=O)c4ccccc4)cc32)cc1 | 1.63 |
| CCOC(=O)c1[nH]ncc1C=C1C(=O)Nc2ccccc21 | 2.36 |
| O=C1Nc2ccc(Br)cc2C1=Cc1cccnc1 | 1.35 |
| COc1cc(C=C2C(=O)Nc3ccccc32)cc(OC)c1OC | 1.41 |
| O=C1Nc2ccccc2/C1=C\c1ccccn1 | 1.68 |

Request: Quick one: log10(CC50 at 72 h) of O=C1Nc2ccc(Br)cc2C1=Cc1ccccn1 ?
Response: 1.96

====

- assayed.system: human recombinant NRH:quinone oxidoreductase (NQO2) (Homo sapiens)
- Construct: purchased Sigma Q0380
- assay.protocol: biochemical
parameter: pIC50
Scale note: pIC50 = -log10(concentration in M).

Please review the following examples before continuing.
| structure.smiles.string | assayed.system | pIC50 |
| --- | --- | --- |
| COc1cc(C=C2C(=O)Nc3ccc(NC(=O)c4ccco4)cc32)cc(OC)c1OC | human recombinant NRH:quinone oxidoreductase (NQO2) (Homo sapiens) | 6.18 |
| COC(=O)Nc1ccc2c(c1)C(=Cc1ccc(Br)cc1)C(=O)N2 | human recombinant NRH:quinone oxidoreductase (NQO2) (Homo sapiens) | 6.21 |

Alright, here's another compound for you.
Request: Which pIC50 is reported for this compound? Cn1cc(C=C2C(=O)Nc3ccccc32)cn1
Response: 5.03

====

- assay.protocol: Antiproliferative assay (MTT colorimetric test, 72 h)
- Type: cell-based
- condition: human, n.a. = not active, read-out: A549, CC50
Examples of molecules with documented CC50 at 72 h follow.
Answer with a number only, understood to be in µM.

Request: For the molecule O=C1Nc2ccc(Br)cc2C1=Cc1ccc(Br)cc1 (mixture of isomers) , what CC50 at 72 h is on record?
Response: 242

Request: Do the same for COc1cc(C=C2C(=O)Nc3ccc(NC(=O)c4ccco4)cc32)cc(OC)c1OC please
Response: 201

Request: Please give the result for COc1ccc(C(=O)CC2(O)C(=O)Nc3ccc(Br)cc32)cc1 (stereo not drawn) too.
Response: 474
